# credit: patent US20250332297A1

- subject-of-test: T1, hDLL3 ECD-Avi-Fckih (biotinylated extracellular domain of human DLL3, residues 27 to 466, Avi-tag, 3C site, … (human, UniProt Q9NYJ7 27-466, biotinylated at the Avi-tag))
- T1 construct: The make-up of the second Fc chain of the knob-into-hole pair is not described; also called bio-DLL3; recombinant human DLL3; not shown: Avi-tag, 3C protease recognition site and Fc knob into hole
- T1 sequence: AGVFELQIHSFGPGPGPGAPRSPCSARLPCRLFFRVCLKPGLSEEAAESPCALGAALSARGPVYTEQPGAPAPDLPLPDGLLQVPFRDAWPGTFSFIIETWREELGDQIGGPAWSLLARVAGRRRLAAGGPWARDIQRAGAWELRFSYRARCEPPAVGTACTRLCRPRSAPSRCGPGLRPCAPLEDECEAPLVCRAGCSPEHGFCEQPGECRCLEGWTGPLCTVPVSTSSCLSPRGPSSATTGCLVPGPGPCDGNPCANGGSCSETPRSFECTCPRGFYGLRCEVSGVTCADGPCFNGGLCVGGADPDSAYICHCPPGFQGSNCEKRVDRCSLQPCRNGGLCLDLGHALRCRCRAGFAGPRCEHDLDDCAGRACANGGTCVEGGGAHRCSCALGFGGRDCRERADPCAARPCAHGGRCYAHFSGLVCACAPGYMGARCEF
- method-summary: SPR (ProteOn), biotinylated hDLL3 ECD-Avi-Fckih on chip, DARPin as analyte, 1:1 Langmuir fit
measured-parameter: kon (M⁻¹ s⁻¹)

{"columns": ["binder", "measured-parameter", "recorded-result"],
 "data": [
  ["MAM160 (two domain ankyrin repeat protein, N-terminal His6-TEV tag) (designed binder, also called 2D DARPin) MRGSHHHHHHENLYFQDLGKKLLEAARAGQDDEVRELLKAGADVNAKDYFSHTPLHLAARNGHLKIVEVLLKAGADVNAKDFAGKTPLHLAADAGHLEIVEVLLKAGADVNAQDIFGKTPADIAADAGHEDIAEVLQKAAGSPTPTPTTPTPTPTTPTPTPTGSDLGTKLLSAAADGQDDEVRELLQAGADVNAKDLFGYTPLHLAAWRGHLEIVEVLLEAGADVNAKDAAGLTPLHLAAWFGHLEIVEVLLEAGADVNAQDVQGVTPADLAAKEGHEDIAEVLQQAA", "kon", 10100]
]}
